- MEASUREMENT NOTES: In vivo pharmacokinetic test, drug concentration in blood plasma by LC-MS/MS
- Parameters: species or system SD rats
- SETUP CONDITIONS: male, SD, rat, plasma, iv, 1 mg/kg, SD rats, intravenous 1 mg/kg, 0.25 h, animal 102M
READOUT TYPE: concentration at 0.25 h (ng/mL)
Your answer is read as ng/mL, so omit the unit and give the number.

Query: Sample CCOc1cccc(Nc2nn(C)c3c2Cc2cc(OCC)c(OCC(N)=O)cc2-3)c1 — what was its concentration at 0.25 h?
Response: 1920

---

- MEASUREMENT NOTES: In vivo pharmacokinetic test, drug concentration in blood plasma by LC-MS/MS
- Design: species or system SD rats
- SETUP CONDITIONS: male, SD, rat, plasma, po, 10 mg/kg, male SD rats, single oral 10 mg/kg, animal 201M
READOUT TYPE: AUC(0-t) (ng·h/mL)
Your answer is read as ng·h/mL, so omit the unit and give the number.

Query: Sample CCOc1cccc(Nc2nn(C)c3c2Cc2cc(OCC)c(OCC(N)=O)cc2-3)c1 — what was its AUC(0-t)?
Response: 10700

---

- MEASUREMENT NOTES: MDCK cell permeability test
- SETUP CONDITIONS: dog, MDCK, Apparent permeability coefficient A→B, 90 min; 1st line of the compound (condition not given)
Below, each of the compounds is paired with its reported Papp A→B at 90 min value.
Your answer is read as ×10⁻⁶ cm/s, so omit the unit and give the number.

[[record]]
molecule = "CCOc1cccc(Nc2nn(C)c3c2Cc2cc(OCC)c(OCC(N)=O)cc2-3)c1"
units_symbol = "×10⁻⁶ cm/s"
assay_value = 0.6


Query: Sample CCOc1cccc(Nc2nn(C)c3c2Cc2cc(OCC)c(OCC(=O)NO)cc2-3)c1 — what was its Papp A→B at 90 min?
Response: 7.4

---

- MEASUREMENT NOTES: In vivo pharmacokinetic test, drug concentration in blood plasma by LC-MS/MS
- Set-up: species or system SD rats
- SETUP CONDITIONS: male, SD, rat, plasma, po, 10 mg/kg, male SD rats, single oral 10 mg/kg, animal 201M
READOUT TYPE: Cmax

Query: Sample CCOc1cccc(Nc2nn(C)c3c2Cc2cc(OCC)c(OCC(N)=O)cc2-3)c1 — what was its Cmax?
Response: 1310 ng/mL

---

- MEASUREMENT NOTES: In vivo pharmacokinetic test, drug concentration in blood plasma by LC-MS/MS
- Set-up: species or system SD rats
- SETUP CONDITIONS: male, SD, rat, plasma, po, 10 mg/kg, SD rats, oral 10 mg/kg, 2 h, animal 202M
READOUT TYPE: concentration at 2 h (ng/mL)
Your answer is read as ng/mL, so omit the unit and give the number.

Query: Sample CCOc1cccc(Nc2nn(C)c3c2Cc2cc(OCC)c(OCC(N)=O)cc2-3)c1 — what was its concentration at 2 h?
Response: 1280

---

- MEASUREMENT NOTES: in vitro
- SETUP CONDITIONS: monkey, microsomes, pH 7.47
READOUT TYPE: microsomal CLint at 1 µM (µL/min/mg)
Your answer is read as µL/min/mg, so omit the unit and give the number.

[[record]]
molecule = "CCOc1cccc(Nc2nn(C)c3c2Cc2cc(OCC)c(OCC(=O)NO)cc2-3)c1"
assay_value = 1070


Query: Sample CCOc1cccc(Nc2nn(C)c3c2Cc2cc(OCC)c(OCC(N)=O)cc2-3)c1 — what was its microsomal CLint at 1 µM?
Response: 64.2

---

Below, each of the compounds is paired with its reported efflux ratio at 90 min value.
- System: P-gp
- MEASUREMENT NOTES: MDCK cell permeability test
- SETUP CONDITIONS: dog, MDCK
API note: the answer field is a bare number with no unit suffix.

[[record]]
compound = "CCOc1cccc(Nc2nn(C)c3c2Cc2cc(OCC)c(OCC(N)=O)cc2-3)c1 [LL-01]"
assay_value = 1.2


Query: Sample CCOc1cccc(Nc2nn(C)c3c2Cc2cc(OCC)c(OCC(=O)NO)cc2-3)c1 [LL-02] — what was its efflux ratio at 90 min?
Response: 4.4

---

- MEASUREMENT NOTES: In vivo pharmacokinetic test, drug concentration in blood plasma by LC-MS/MS
- Set-up: species or system SD rats
- SETUP CONDITIONS: SD, rat, plasma, po, 10 mg/kg, SD rats, oral 10 mg/kg, 0.25 h, Mean
READOUT TYPE: concentration at 0.25 h
Value and unit, in that order.

Query: Sample CCOc1cccc(Nc2nn(C)c3c2Cc2cc(OCC)c(OCC(N)=O)cc2-3)c1 — what was its concentration at 0.25 h?
Response: 280 ng/mL

---

- MEASUREMENT NOTES: In vivo pharmacokinetic test, drug concentration in blood plasma by LC-MS/MS
- Design: species or system SD rats
- SETUP CONDITIONS: SD, rat, plasma, po, 10 mg/kg, SD rats, oral 10 mg/kg, 24 h, animal 203M
READOUT TYPE: concentration at 24 h
Value and unit, in that order.

Query: Sample CCOc1cccc(Nc2nn(C)c3c2Cc2cc(OCC)c(OCC(N)=O)cc2-3)c1 [LL-01] — what was its concentration at 24 h?
Response: 16.6 ng/mL

---

- MEASUREMENT NOTES: In vivo pharmacokinetic test, drug concentration in blood plasma by LC-MS/MS
- Design: species or system SD rats
- SETUP CONDITIONS: male, SD, rat, plasma, iv, 1 mg/kg, SD rats, intravenous 1 mg/kg, 2 h, animal 102M
- Excerpt: 2. Test animal: SD rats, which are 284-304 g before the test, and bought from Shanghai Xipuer-Bikai laboratory animal Co., Ltd. with production license No. SCXK (Hu) 2013-0016, and laboratory animal certificate Nos. 2008001658223 and 2008001658296. […] The content of compound LL-01 in SD rat blood plasma is detected by use of LC-MS/MS method. […]
READOUT TYPE: concentration at 2 h (ng/mL)
Your answer is read as ng/mL, so omit the unit and give the number.

Query: Sample CCOc1cccc(Nc2nn(C)c3c2Cc2cc(OCC)c(OCC(N)=O)cc2-3)c1 — what was its concentration at 2 h?
Response: 372

---

- MEASUREMENT NOTES: In vivo pharmacokinetic test, drug concentration in blood plasma by LC-MS/MS
- Parameters: species or system SD rats
- SETUP CONDITIONS: male, SD, rat, plasma, po, 10 mg/kg, SD rats, oral 10 mg/kg, 2 h, animal 201M
- Source text: 2. Test animal: SD rats, which are 284-304 g before the test, and bought from Shanghai Xipuer-Bikai laboratory animal Co., Ltd. with production license No. SCXK (Hu) 2013-0016, and laboratory animal certificate Nos. 2008001658223 and 2008001658296. […] The content of compound LL-01 in SD rat blood plasma is detected by use of LC-MS/MS method. […]
READOUT TYPE: concentration at 2 h (ng/mL)
Your answer is read as ng/mL, so omit the unit and give the number.

Query: Sample CCOc1cccc(Nc2nn(C)c3c2Cc2cc(OCC)c(OCC(N)=O)cc2-3)c1 — what was its concentration at 2 h?
Response: 675

---

- MEASUREMENT NOTES: In vivo pharmacokinetic test, drug concentration in blood plasma by LC-MS/MS
- Set-up: species or system SD rats
- SETUP CONDITIONS: male, SD, rat, plasma, iv, 1 mg/kg, male SD rats, single intravenous 1 mg/kg, animal 102M; read-out: Vz—pred
READOUT TYPE: Vd

Query: Sample CCOc1cccc(Nc2nn(C)c3c2Cc2cc(OCC)c(OCC(N)=O)cc2-3)c1 — what was its Vd?
Response: 0.53 L/kg

---

- MEASUREMENT NOTES: In vivo pharmacokinetic test, drug concentration in blood plasma by LC-MS/MS
- Parameters: species or system SD rats
- SETUP CONDITIONS: male, SD, rat, plasma, iv, 1 mg/kg, SD rats, intravenous 1 mg/kg, 0.25 h, animal 103M
READOUT TYPE: concentration at 0.25 h
Value and unit, in that order.

Query: Sample CCOc1cccc(Nc2nn(C)c3c2Cc2cc(OCC)c(OCC(N)=O)cc2-3)c1 [LL-01] — what was its concentration at 0.25 h?
Response: 1910 ng/mL

---

- MEASUREMENT NOTES: In vivo pharmacokinetic test, drug concentration in blood plasma by LC-MS/MS
- Design: species or system SD rats
- SETUP CONDITIONS: male, SD, rat, plasma, iv, 1 mg/kg, male SD rats, single intravenous 1 mg/kg, animal 101M
READOUT TYPE: Cmax (ng/mL)
Your answer is read as ng/mL, so omit the unit and give the number.

Query: Sample CCOc1cccc(Nc2nn(C)c3c2Cc2cc(OCC)c(OCC(N)=O)cc2-3)c1 — what was its Cmax?
Response: 2720
